ASSAY_TARGET: BRAF V600E (Homo sapiens, UniProt P15056, V600E)
Construct: expressed in transfected cells
Sequence (P15056 whole entry V600E): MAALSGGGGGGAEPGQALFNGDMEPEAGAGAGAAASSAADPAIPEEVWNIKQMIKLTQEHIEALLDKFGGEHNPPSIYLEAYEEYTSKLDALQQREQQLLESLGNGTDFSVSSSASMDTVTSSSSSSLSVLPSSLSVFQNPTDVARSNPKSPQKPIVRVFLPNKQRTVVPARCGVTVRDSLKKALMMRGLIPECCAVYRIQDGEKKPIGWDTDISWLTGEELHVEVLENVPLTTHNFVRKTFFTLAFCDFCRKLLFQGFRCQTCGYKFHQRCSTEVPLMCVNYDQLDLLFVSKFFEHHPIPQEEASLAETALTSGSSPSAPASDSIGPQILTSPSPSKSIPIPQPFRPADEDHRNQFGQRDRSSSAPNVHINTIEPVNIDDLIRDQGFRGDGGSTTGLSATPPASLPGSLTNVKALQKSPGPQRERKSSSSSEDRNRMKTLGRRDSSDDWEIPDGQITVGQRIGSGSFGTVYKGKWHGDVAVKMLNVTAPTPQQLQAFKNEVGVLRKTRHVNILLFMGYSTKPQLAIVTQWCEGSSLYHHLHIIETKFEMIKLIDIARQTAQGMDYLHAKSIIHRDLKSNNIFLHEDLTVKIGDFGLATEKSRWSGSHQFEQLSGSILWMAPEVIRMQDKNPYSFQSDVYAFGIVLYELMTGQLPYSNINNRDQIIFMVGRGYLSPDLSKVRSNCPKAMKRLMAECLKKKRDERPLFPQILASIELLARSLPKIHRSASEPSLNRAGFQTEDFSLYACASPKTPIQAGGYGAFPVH
ASSAY_INFO: Cellular assay of target protein degradation, T-Rex 293 cells stably transfected with HA-BRAF_V600E (HA immunofluorescence, high content imaging)
Type: cell-based
CONDITION_DETAILS: half maximal degradation, T-Rex 293 HA-BRAF V600E; read-out: BRaf V600E DC50
REPORTED_ENDPOINT: DC50

Fill in reported DC50 for this entry: CCCS(=O)(=O)Nc1ccc(F)c(C(=O)c2c[nH]c3ncc(-c4ccc(N5CCC(CN6CCC(c7ccc8c(c7)CN(C7CCC(=O)NC7=O)C8=O)CC6)CC5)cc4)cc23)c1F (stereo not drawn)
5 to 50 nM

Fill in reported DC50 for this entry: O=C1CC[C@@H](NC(=O)c2ccc(N3CCN(CC4CCN(c5ccc(-c6cnc7[nH]cc(C(=O)c8c(F)ccc(NS(=O)(=O)N9CC[C@@H](F)C9)c8F)c7c6)cc5)CC4)CC3)cc2F)C(=O)N1
50 to 500 nM

Fill in reported DC50 for this entry: O=C1CC[C@@H](N2Cc3cc(CC[C@H](O)CN4CC5(C4)CN(c4ccc(-c6cnc7[nH]cc(C(=O)c8c(F)ccc(NS(=O)(=O)N9CC[C@@H](F)C9)c8F)c7c6)cc4)C5)ccc3C2=O)C(=O)N1
5 to 50 nM

Fill in reported DC50 for this entry: O=C1CC[C@@H](N2Cc3cc(OC[C@@H](O)CN4CC5(C4)CN(c4ccc(-c6cnc7[nH]cc(C(=O)c8c(F)ccc(NS(=O)(=O)N9CC[C@@H](F)C9)c8F)c7c6)cc4)C5)ccc3C2=O)C(=O)N1
5 to 50 nM

Fill in reported DC50 for this entry: O=C1CCC(NC(=O)c2ccc(CCCN3CC4(C3)CN(c3ccc(-c5cnc6[nH]cc(C(=O)c7c(F)ccc(NS(=O)(=O)N8CC[C@@H](F)C8)c7F)c6c5)cc3)C4)cc2F)C(=O)N1 (stereo partly drawn)
> 500 nM

Fill in reported DC50 for this entry: O=C1CC[C@@H](N2Cc3cc(OCCCN4CC5(C4)CN(c4ccc(-c6cnc7[nH]cc(C(=O)c8c(F)ccc(NS(=O)(=O)N9CC[C@@H](F)C9)c8F)c7c6)cc4)C5)ccc3C2=O)C(=O)N1
5 to 50 nM

Fill in reported DC50 for this entry: O=C1CC[C@H](NC(=O)c2ccc(N3CCC(CN4CCN(c5ccc(-c6cnc7[nH]cc(C(=O)c8c(F)ccc(NS(=O)(=O)N9CC[C@@H](F)C9)c8F)c7c6)cc5)CC4)CC3)cc2F)C(=O)N1
5 to 50 nM

Fill in reported DC50 for this entry: O=C1CCC(N2Cc3cc(C4CCN(CC5CC6(C5)CN(c5ccc(-c7cnc8[nH]cc(C(=O)c9c(F)ccc(NS(=O)(=O)N%10CC[C@@H](F)C%10)c9F)c8c7)cn5)C6)CC4)ccc3C2=O)C(=O)N1 (stereo partly drawn)
5 to 50 nM

Fill in reported DC50 for this entry: O=C1CC[C@H](N2Cc3cc(N4CC[C@@H](COc5ccc(-c6cnc7[nH]cc(C(=O)c8c(F)ccc(NS(=O)(=O)N9CC[C@@H](F)C9)c8F)c7c6)cc5)C4)ccc3C2=O)C(=O)N1
> 500 nM

* * *

ASSAY_TARGET: BRAF V600E (Homo sapiens, UniProt P15056, V600E)
Construct: expressed in transfected cells
ASSAY_INFO: Cellular assay of target protein degradation, T-Rex 293 cells stably transfected with HA-BRAF_V600E (HA immunofluorescence, high content imaging)
Assay type: cell-based
CONDITION_DETAILS: half maximal degradation, T-Rex 293 HA-BRAF V600E; read-out: BRaf V600E DC50
REPORTED_ENDPOINT: DC50

Fill in reported DC50 for this entry: O=C1CCC(N2Cc3cc(OCCN4CC5(C4)CN(c4ccc(-c6cnc7[nH]cc(C(=O)c8c(F)ccc(NS(=O)(=O)N9CC[C@@H](F)C9)c8F)c7c6)cc4)C5)ccc3C2=O)C(=O)N1 (some centres unmarked) [Compound 89]
< 5 nM

Fill in reported DC50 for this entry: CN(CCN1CCN(c2ccc3c(c2)CN(C2CCC(=O)NC2=O)C3=O)CC1)[C@H]1C[C@@H](Oc2ccc(-c3cnc4[nH]cc(C(=O)c5c(F)ccc(NS(=O)(=O)N6CC[C@@H](F)C6)c5F)c4c3)cc2)C1 (some centres unmarked) [Compound 182]
50 to 500 nM

Fill in reported DC50 for this entry: CN(CCN1CCN(c2ccc(-c3cnc4[nH]cc(C(=O)c5c(F)ccc(NS(=O)(=O)N6CC[C@@H](F)C6)c5F)c4c3)cc2)CC1)[C@H]1C[C@@H](Oc2ccc3c(c2)CN(C2CCC(=O)NC2=O)C3=O)C1 (some centres unmarked) [Compound 126]
5 to 50 nM

Fill in reported DC50 for this entry: COc1cc(N2CCN(CC3CCN(c4ccc(-c5cnc6[nH]cc(C(=O)c7c(F)ccc(NS(=O)(=O)N8CC[C@@H](F)C8)c7F)c6c5)cc4)CC3)CC2)ccc1C(=O)N[C@H]1CCC(=O)NC1=O [Compound 359]
5 to 50 nM

Fill in reported DC50 for this entry: O=C1CC[C@H](N2Cc3cc(C4CCN(CC5CCN(c6ccc(-c7cnc8[nH]cc(C(=O)c9c(F)ccc(NS(=O)(=O)N%10CC[C@@H](F)C%10)c9F)c8c7)cc6)CC5)CC4)ccc3C2=O)C(=O)N1 [Compound 160]
< 5 nM
